# SYSTEM_NAME: EGFR mutant L858R/T790M (Homo sapiens, UniProt P00533, L858R/T790M)
# Construct: truncated human JAK3, EGFR mutants such as del E746-A750; purchased Carna Biosciences
# Sequence (P00533 669-1210 T790M/L858R limits assumed): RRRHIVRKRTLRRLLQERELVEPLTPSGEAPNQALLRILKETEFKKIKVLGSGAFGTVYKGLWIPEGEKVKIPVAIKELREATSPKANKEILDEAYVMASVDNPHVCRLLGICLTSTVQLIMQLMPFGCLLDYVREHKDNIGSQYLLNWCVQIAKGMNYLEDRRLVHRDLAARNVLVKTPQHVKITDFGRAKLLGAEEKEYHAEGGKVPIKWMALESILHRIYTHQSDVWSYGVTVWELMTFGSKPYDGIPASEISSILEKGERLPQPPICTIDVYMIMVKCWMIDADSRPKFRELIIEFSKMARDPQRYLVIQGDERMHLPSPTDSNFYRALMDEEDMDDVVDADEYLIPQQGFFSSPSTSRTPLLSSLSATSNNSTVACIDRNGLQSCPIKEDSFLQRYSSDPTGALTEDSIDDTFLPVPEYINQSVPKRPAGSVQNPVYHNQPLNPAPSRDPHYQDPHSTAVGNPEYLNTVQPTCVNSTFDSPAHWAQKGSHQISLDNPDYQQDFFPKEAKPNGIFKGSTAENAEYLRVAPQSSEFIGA
# METHOD_SUMMARY: Kinase inhibition assay, EGFR L858R/T790M;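 also: truncated human enzyme preincubated two hours with compound, then one hour with one millimolar ATP and ULight-PolyGT peptide, Europium-labeled antibody detection, IC50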
# Type: biochemical
# REPORTED_CONDITIONS: read-out: EGFR mutants L858R/T790M
IC50 values for the molecules below.

molecule=C=CC(=O)Nc1cc(Nc2nccc(-n3cc(CN(C)C)c(C4CC4)n3)n2)c(OC)cc1N1CCOCC1 readout_name=IC50 value_reported="< 20 nM"
molecule=C=CC(=O)Nc1cc(Nc2nccc(-n3cc(CN(C)C)c(C4CC4)n3)n2)c(OC)cc1N(C)C1COC1 readout_name=IC50 value_reported="< 20 nM"

Check EGFR mutant L858R/T790M (Homo sapiens, UniProt P00533, L858R/T790M) data and give IC50 for C=CC(=O)Nc1cc(Nc2ncc(F)c(-n3cc(CN(C)C)c(-c4ccoc4)c3)n2)c(OC)cc1N1CCOCC1 . < 20 nM

Quote EGFR mutant L858R/T790M (Homo sapiens, UniProt P00533, L858R/T790M) IC50 for entry C=CC(=O)Nc1cc(Nc2nccc(-n3cc(CN4CC(OC)C4)c(C)n3)n2)c(OC)cc1N1CCOCC1 . 20 to 200 nM

Report IC50 from EGFR mutant L858R/T790M (Homo sapiens, UniProt P00533, L858R/T790M) testing of C=CC(=O)Nc1cc(Nc2nccc(-n3cc(CN4CCC4)c(C(C)(C)C)n3)n2)c(OC)cc1N(C)CCOC < 20 nM

Please look at C=CC(=O)Nc1cc(Nc2nccc(-n3cc(CN(C)C)c(C)n3)n2)c(OC)cc1N1CCN(CCF)CC1 and tell me its recorded IC50 on EGFR mutant L858R/T790M (Homo sapiens, UniProt P00533, L858R/T790M). < 20 nM

Report value: IC50, system: EGFR mutant L858R/T790M (Homo sapiens, UniProt P00533, L858R/T790M), molecule: C=CC(=O)Nc1cc(Nc2nccc(-n3cc(CN4CCC4)c(-c4ccccc4)n3)n2)c(OC)cc1N1CCCC1 20 to 200 nM

Print EGFR mutant L858R/T790M (Homo sapiens, UniProt P00533, L858R/T790M) IC50 for C=CC(=O)Nc1cc(Nc2ncc(F)c(-n3cc(C)c(CN4CCC4)c3)n2)c(OC)cc1N1CCOCC1 . < 20 nM

Look up and report IC50, with EGFR mutant L858R/T790M (Homo sapiens, UniProt P00533, L858R/T790M) as system, for C=CC(=O)Nc1cc(Nc2ncc(C)c(-n3cc(CN4CCC4)cn3)n2)c(OC)cc1N1CCN(C(C)=O)CC1 < 20 nM

Provide EGFR mutant L858R/T790M (Homo sapiens, UniProt P00533, L858R/T790M) IC50 reading for C=CC(=O)Nc1cc(Nc2ncc(C)c(-n3cc(CN4C[C@@H](O)[C@@H](O)C4)c(C)n3)n2)c(OC)cc1N1CCOCC1 . < 20 nM

Please tell me the measured IC50 for C=CC(=O)Nc1cc(Nc2nccc(-n3cc(CN(C)C)c(C(C)C)n3)n2)c(OC)cc1N(C)CCOC ; system: EGFR mutant L858R/T790M (Homo sapiens, UniProt P00533, L858R/T790M). < 20 nM

Write IC50 of COc1cc(N2CCOCC2)c(N)cc1Nc1nccc(-n2cc(CN(C)C)c(-c3ccccc3)n2)n1 [Compound 153, reference compound] ; system used: EGFR mutant L858R/T790M (Homo sapiens, UniProt P00533, L858R/T790M) > 1000 nM

Recall the reported IC50 of C=CC(=O)Nc1cc(Nc2ncc(C)c(-n3cc(CN(C)C)c(C(C)C)n3)n2)c(OC)cc1N1CCOCC1 when tested on EGFR mutant L858R/T790M (Homo sapiens, UniProt P00533, L858R/T790M). < 20 nM

// fetch IC50; item: Cc1cc(Nc2nccc(-n3cc(CN4CC(O)C4)c(C)n3)n2)cc(C)c1OCCO [Compound 149, reference compound] ; system: EGFR mutant L858R/T790M (Homo sapiens, UniProt P00533, L858R/T790M) 201 to 1000 nM

* * *

# SYSTEM_NAME: EGFR mutant L858R (Homo sapiens, UniProt P00533, L858R)
# Construct: truncated human JAK3, EGFR mutants such as del E746-A750; purchased Carna Biosciences
# Sequence (P00533 669-1210 L858R limits assumed): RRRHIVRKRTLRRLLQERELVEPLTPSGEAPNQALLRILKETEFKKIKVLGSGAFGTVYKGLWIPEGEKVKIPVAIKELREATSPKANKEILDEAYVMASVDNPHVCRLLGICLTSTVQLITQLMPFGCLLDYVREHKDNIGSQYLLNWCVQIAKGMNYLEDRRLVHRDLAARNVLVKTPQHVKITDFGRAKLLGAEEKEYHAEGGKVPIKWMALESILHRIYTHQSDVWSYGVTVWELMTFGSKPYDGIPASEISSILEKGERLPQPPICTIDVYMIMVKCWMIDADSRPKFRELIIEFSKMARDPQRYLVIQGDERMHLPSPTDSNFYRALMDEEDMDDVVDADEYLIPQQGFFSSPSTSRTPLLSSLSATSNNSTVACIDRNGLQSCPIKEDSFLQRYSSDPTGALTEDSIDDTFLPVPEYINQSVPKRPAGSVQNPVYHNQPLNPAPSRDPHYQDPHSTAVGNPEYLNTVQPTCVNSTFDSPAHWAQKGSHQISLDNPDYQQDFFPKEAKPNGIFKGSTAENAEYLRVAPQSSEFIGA
# METHOD_SUMMARY: Kinase inhibition assay, EGFR L858R;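 also: truncated human EGFR L858R kinase with compound preincubation, ULight-PolyGT peptide phosphorylation read by Europium-antibody Lance detection, IC50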
# Assay type: biochemical
# REPORTED_CONDITIONS: read-out: EGFR mutants L858R
Reported IC50 values are given for each entry in this list.

Below are worked cases with known answers.
compound=C=CC(=O)Nc1cc(Nc2nccc(-n3cc(CN(C)C)c(C(C)C)n3)n2)c(OC)cc1N(C)CCOC readout_name=IC50 value_reported="< 20 nM"
compound=C=CC(=O)Nc1cc(Nc2nccc(-n3cc(CN4CCC4)c(-c4ccccc4)n3)n2)c(OC)cc1N1CCCC1 readout_name=IC50 value_reported="20 to 200 nM"
compound="Cc1cc(Nc2nccc(-n3cc(CN4CC(O)C4)c(C)n3)n2)cc(C)c1OCCO [Compound 149, reference compound]" readout_name=IC50 value_reported="> 1000 nM"

Identify the reported IC50 for the following entry. C=CC(=O)Nc1cc(Nc2ncc(C)c(-n3cc(CN4CC(O)C4)c(C)n3)n2)c(OC)cc1N1CCN(C)CC1 < 20 nM

Supply reported IC50 belonging to this compound: C=CC(=O)Nc1cc(Nc2ncc(Cl)c(-n3cc(CN4C[C@@H](O)[C@@H](O)C4)c(C)n3)n2)c(OC)cc1N1CCN(C)CC1 20 to 200 nM

Input C=CC(=O)Nc1cc(Nc2ncc(C)c(-n3cc(CN4CCC4)cn3)n2)c(OC(C)C)cc1N1CCOCC1 , output reported IC50. 201 to 1000 nM

Given the compound C=CC(=O)Nc1cc(Nc2nccc(-n3cc(CN4CCC4)c(-c4ccccc4)n3)n2)c(OC)cc1N(C)C1COC1 , write its reported IC50. < 20 nM

Provide only the value of recorded IC50 for C=CC(=O)Nc1cc(Nc2ncc(C)c(-n3cc(CN(C)C)c(-c4ccccc4)n3)n2)c(OC)cc1N1CCOCC1 < 20 nM

Write down IC50 measured for item Cc1cn(-c2ccnc(Nc3ccc(-c4ccccc4)c(C)c3)n2)cc1CN1CC(O)C1 [Compound 150, reference compound] > 1000 nM

Respond only with IC50 recorded for C=CC(=O)Nc1cc(Nc2nccc(-n3cc(CN(C)C)c(C(C)(C)C)n3)n2)c(OC)cc1N(CC)CCOC < 20 nM

Return IC50 (reported value) for this compound: C=CC(=O)Nc1cc(Nc2nccc(-n3cc(CN4CCC4)c(-c4ccccc4)n3)n2)c(OC)cc1N1CCC1 < 20 nM

For the compound C=CC(=O)Nc1cc(Nc2nccc(-n3cc(CO)c(-c4ccccc4)n3)n2)c(OC)cc1N1CCOCC1 , give its measured IC50 value. 20 to 200 nM

Supply IC50 value. Item: C=CC(=O)Nc1cc(Nc2nccc(-n3cc(CN4CCC4)c(C(C)C)n3)n2)c(OC)cc1N(C)CCOC < 20 nM

Return IC50 (reported value) for this compound: C=CC(=O)Nc1cc(Nc2ncc(F)c(-n3cc(CN4C[C@H](O)[C@H](OC)C4)c(C)n3)n2)c(OC)cc1N1CCOCC1 20 to 200 nM

* * *

Assay read-out pIC50; system under study: SYK (Homo sapiens).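 Also: purified full-length human SYK pre-incubated 30 min with compound, then ULight-TK peptide phosphorylation for 1 h, detected with Europium-labeled antibody in Lance buffer.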
pIC50: −log10 of the molar value.

These recorded examples may help you get a feel for the data.
entry_smiles=C=CC(=O)Nc1cc(Nc2nccc(-n3cc(CN(C)C)c(C(C)(C)C)n3)n2)c(OC)cc1N1CCCC1 readout_name=pIC50 value_reported="< 6.00"
entry_smiles=C=CC(=O)Nc1cc(Nc2nccc(-n3cc(CN4CCC4)cn3)n2)c(OC)cc1N1CCOCC1 readout_name=pIC50 value_reported="6.00 to 6.70"
entry_smiles=C=CC(=O)Nc1cc(Nc2nccc(-n3cc(CN(C)C)c(C4CC4)n3)n2)c(OC)cc1N1CCN(C(C)=O)CC1 readout_name=pIC50 value_reported="6.00 to 6.70"

Quickly give me recorded pIC50 for C=CC(=O)Nc1cc(Nc2nccc(-n3cc(CN(C)C)c(C)n3)n2)c(OC)cc1N(C)C 6.00 to 6.70

* * *

Listed here: items and their measured IC50.
# SYSTEM_NAME: p-EGFR wildtype (Homo sapiens, UniProt P00533)
# Construct: endogenous in cells
# Sequence (P00533 25-1210): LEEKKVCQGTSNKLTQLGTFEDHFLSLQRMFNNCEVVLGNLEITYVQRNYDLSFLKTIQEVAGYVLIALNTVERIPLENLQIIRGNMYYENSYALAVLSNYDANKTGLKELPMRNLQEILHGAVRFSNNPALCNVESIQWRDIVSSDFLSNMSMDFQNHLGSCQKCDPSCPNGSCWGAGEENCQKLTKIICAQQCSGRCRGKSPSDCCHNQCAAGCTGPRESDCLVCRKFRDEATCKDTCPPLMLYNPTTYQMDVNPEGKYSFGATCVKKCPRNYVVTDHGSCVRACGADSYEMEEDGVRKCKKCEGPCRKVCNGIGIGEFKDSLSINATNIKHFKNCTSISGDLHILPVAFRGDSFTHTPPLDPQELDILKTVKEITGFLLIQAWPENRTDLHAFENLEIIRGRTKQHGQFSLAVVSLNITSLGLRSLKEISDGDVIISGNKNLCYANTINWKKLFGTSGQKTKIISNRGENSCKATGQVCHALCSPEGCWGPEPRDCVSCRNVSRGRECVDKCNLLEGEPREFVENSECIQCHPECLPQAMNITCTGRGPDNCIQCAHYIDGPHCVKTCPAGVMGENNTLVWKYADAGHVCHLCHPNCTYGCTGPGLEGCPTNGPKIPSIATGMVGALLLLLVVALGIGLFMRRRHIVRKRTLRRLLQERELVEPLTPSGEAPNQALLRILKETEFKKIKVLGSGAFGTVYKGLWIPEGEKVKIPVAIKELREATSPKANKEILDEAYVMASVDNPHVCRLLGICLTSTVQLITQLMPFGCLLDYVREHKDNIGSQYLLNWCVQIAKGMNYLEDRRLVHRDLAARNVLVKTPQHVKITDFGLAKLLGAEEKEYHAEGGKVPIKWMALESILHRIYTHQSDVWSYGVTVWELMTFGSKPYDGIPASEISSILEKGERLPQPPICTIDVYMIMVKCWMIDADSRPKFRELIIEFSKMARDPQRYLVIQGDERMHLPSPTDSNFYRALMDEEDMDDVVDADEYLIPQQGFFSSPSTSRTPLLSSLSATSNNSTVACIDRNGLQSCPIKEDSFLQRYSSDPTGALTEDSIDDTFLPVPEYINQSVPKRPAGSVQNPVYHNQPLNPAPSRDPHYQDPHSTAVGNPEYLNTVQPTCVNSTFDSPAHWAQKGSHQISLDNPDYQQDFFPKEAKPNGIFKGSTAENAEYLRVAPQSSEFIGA
# METHOD_SUMMARY: Western analysis, H1299 p-EGFR wildtype
# REPORTED_CONDITIONS: molecular potency; 4 hours; 3 nM EGF ligand

Sample answers from the record:
entry_smiles=C=CC(=O)Nc1cc(Nc2nccc(-n3cc(CN(C)C)c(-c4ccccc4)n3)n2)c(OC)cc1N1CCOCC1 readout_name=IC50 value_reported="201 to 1000 nM"
entry_smiles=C=CC(=O)Nc1cc(Nc2nccc(-n3cc(CN4CCC4)c(-c4ccccc4)n3)n2)c(OC)cc1N1CCOCC1 readout_name=IC50 value_reported="> 1000 nM"
entry_smiles=C=CC(=O)Nc1cc(Nc2ncc(C)c(-n3cc(CN4C[C@H](O)[C@H](OC)C4)c(C)n3)n2)c(OC)cc1N1CCOCC1 readout_name=IC50 value_reported="> 1000 nM"
entry_smiles=C=CC(=O)Nc1cc(Nc2nccc(-n3cc(CN4CCC4)c(C)n3)n2)c(OC)cc1N1CCOCC1 readout_name=IC50 value_reported="> 1000 nM"
entry_smiles=C=CC(=O)Nc1cc(Nc2ncc(C)c(-n3cc(CN(C)C)c(C4CC4)n3)n2)c(OC)cc1N1CCOCC1 readout_name=IC50 value_reported="201 to 1000 nM"
entry_smiles=C=CC(=O)Nc1cc(Nc2nccc(-n3cc(CN(C)C)c(C4CC4)n3)n2)c(OC)cc1N1CCOCC1 readout_name=IC50 value_reported="201 to 1000 nM"

Return value of IC50 for input C=CC(=O)Nc1cc(Nc2nccc(-n3cc(CN(C)C)c(C)n3)n2)c(OC)cc1N1CCOCC1 , no commentary. 20 to 200 nM
